- TEST_SYSTEM: UniProt P43235
- Sequence (P43235 whole entry): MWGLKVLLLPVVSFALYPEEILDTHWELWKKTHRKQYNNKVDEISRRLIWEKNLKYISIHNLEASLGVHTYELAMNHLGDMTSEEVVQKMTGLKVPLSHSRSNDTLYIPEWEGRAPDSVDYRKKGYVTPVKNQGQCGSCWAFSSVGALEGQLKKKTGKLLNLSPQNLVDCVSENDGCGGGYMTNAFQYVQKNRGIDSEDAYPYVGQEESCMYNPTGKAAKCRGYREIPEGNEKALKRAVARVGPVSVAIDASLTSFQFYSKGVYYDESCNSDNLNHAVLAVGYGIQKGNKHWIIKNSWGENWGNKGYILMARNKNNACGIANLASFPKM
pIC50: −log10 of the molar value.
Reported pIC50 values for the following molecules.

COMPOUND_SMILES: N#Cc1nc(N2CCCC2)c(N)c(N2CCOCC2)n1
pIC50: 7.22
//
COMPOUND_SMILES: N#Cc1nc(Nc2ccccc2)c(N)c(N2CCOCC2)n1
pIC50: 6.96
//
COMPOUND_SMILES: CC(C)(C)CNc1nc(C#N)nc(N2CCOCC2)c1N
pIC50: 7.77
//
COMPOUND_SMILES: N#Cc1nc(NC2CCCCC2)c(N)c(N2CCOCC2)n1
pIC50: 7.64
//
COMPOUND_SMILES: CC(C)CNc1nc(C#N)nc(NCc2nnn[nH]2)c1N
pIC50: 7.21
//
COMPOUND_SMILES: CC(C)CNc1nc(C#N)nc(N2CC(O)C2)c1N
pIC50: 7.49
//
COMPOUND_SMILES: COCCNc1nc(C#N)nc(NCC(C)C)c1N
pIC50: 7.62

---

- TEST_SYSTEM: Cathepsin S (Homo sapiens)
- Sequence (P25774 whole entry): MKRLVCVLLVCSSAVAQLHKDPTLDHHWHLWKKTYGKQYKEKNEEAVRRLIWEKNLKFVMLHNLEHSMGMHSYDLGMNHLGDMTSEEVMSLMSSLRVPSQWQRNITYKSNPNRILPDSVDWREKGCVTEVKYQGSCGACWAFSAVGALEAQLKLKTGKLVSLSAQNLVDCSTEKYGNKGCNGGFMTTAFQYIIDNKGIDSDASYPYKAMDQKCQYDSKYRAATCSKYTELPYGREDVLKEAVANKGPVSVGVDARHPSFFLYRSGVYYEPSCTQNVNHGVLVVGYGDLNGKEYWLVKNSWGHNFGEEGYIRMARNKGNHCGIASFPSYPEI
pIC50: −log10 of the molar value.

COMPOUND_SMILES: CC(C)CNc1nc(C#N)nc(N2CCNCC2)c1N
pIC50: 6.05

---

- TEST_SYSTEM: Procathepsin L (Homo sapiens, UniProt P07711)
- Sequence (P07711 whole entry): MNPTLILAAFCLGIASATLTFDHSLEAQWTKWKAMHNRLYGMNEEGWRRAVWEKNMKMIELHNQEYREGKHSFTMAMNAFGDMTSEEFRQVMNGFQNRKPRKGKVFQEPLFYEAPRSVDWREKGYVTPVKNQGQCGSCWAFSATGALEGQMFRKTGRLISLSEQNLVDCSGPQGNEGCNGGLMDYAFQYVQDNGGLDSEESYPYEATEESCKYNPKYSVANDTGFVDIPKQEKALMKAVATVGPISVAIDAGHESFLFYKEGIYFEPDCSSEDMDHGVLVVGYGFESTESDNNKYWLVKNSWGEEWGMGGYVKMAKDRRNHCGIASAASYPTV
OBSERVABLE: IC50

COMPOUND_SMILES: CC(C)CNc1nc(C#N)nc(N2CCOCC2)c1N
RECORDED_VALUE: 2000 nM
